settings: in methyl acetate, 323.15 K
MEASUREMENT KIND: solubility (mole fraction)
Could you keep your reply to the number by itself?

IN: Find the recorded solubility (mole fraction) belonging to O=C(O)c1cc2ccccc2cc1O and report it.
OUT: 0.0402

----------
details: in methyl acetate, 318.15 K
MEASUREMENT KIND: solubility (mole fraction)
Could you keep your reply to the number by itself?

IN: Find the recorded solubility (mole fraction) belonging to O=C(O)c1cc2ccccc2cc1O and report it.
OUT: 0.0349

----------
conditions: in acetone, 293.15 K
MEASUREMENT KIND: solubility (mole fraction)
Could you keep your reply to the number by itself?

IN: Find the recorded solubility (mole fraction) belonging to O=C(O)c1cc2ccccc2cc1O and report it.
OUT: 0.0363

Data credit: BigSolDB 2.1
